- TEST TARGET: T1, 4H796-bH
- T1 chain: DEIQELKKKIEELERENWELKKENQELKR
- EXPERIMENT SUMMARY: two-hybrid library CCNG1;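 further: natural log of median RNA to DNA barcode read ratio; higher means stronger binding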
REPORTED ENDPOINT: interaction score

Query: Need interaction score, item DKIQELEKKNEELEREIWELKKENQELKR [4H2444-bH]
Response: 0.0566

Query: Need interaction score, item DKIQELKKKNEELKRKIWELEKEIQELER [4H3041-bH]
Response: -0.497

Query: Need interaction score, item DEIQELEKKIEELKRENWELKKKIQELER [4H349-bH]
Response: 0.227

[1] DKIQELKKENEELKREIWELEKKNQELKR [4H2760-bH]
[2] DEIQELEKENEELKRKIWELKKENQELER [4H235-bH]
[3] DKNQELEKKIEELERKNWELEKKIQELER [4H3381-bH]
[4] DEIQELKKKIEELERENWELKKENQELKR [4H796-bH]
[5] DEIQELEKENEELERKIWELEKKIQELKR [4H166-bH]
Query: Hello, I need these entries ordered by interaction score, highest reading first. Thanks! Could you list the labels in the order requested?
Response: 4, 5, 1, 2, 3
